Measured On: PI3 Kinase
Method: PI3K fluorescence polarization assay
Reported Conditions: 25 μM ATP, diC8-PI(4,5)P2 substrate, 1 hour at 25° C.; read-out: PI3 Kinase Median IC50
Measured Quantity: pIC50
One number for each entry, as −log10 of the molar value.

OCc1cccc(-c2nc(N3CCOCC3)c3ncn(C4CCN(Cc5c[nH]c6ccc(F)cc56)CC4)c3n2)c1 | 7.52

Quick one: give me pIC50 for each item below, same order please.
1. Oc1cccc(-c2nc(N3CCOCC3)c3ncn(CCN4CCCCC4)c3n2)c1
2. COc1ccc(CN2CCC(n3cnc4c(N5CCOCC5)nc(-c5cccc(O)c5)nc43)CC2)cn1
3. COCOc1cncc(-c2nc(N3CCOCC3)c3ncn(C4CCN(C(=O)OC(C)(C)C)CC4)c3n2)c1
4. COc1cncc(-c2nc(N3CCOCC3)c3nc[nH]c3n2)c1

Result:
1. 6.79
2. 7.26
3. 5.68
4. 6.22

Quick request: pIC50 for each listed item, please.
1. Cc1ccc(CN2CCC(n3cnc4c(N5CCOCC5)nc(-c5cncc(O)c5)nc43)CC2)s1
2. Clc1cc(-c2nc(N3CCOCC3)c3nc[nH]c3n2)ccc1OCc1ccccc1
3. Oc1cccc(-c2nc(N3CCOCC3)c3ncn(C4CCN(Cc5ccc(N6CCOCC6)nc5)CC4)c3n2)c1

Result:
7.59
5.34
7.26
